Target: UniProtKB Q92793
Sequence (Q92793 whole entry, the tested form may be a part): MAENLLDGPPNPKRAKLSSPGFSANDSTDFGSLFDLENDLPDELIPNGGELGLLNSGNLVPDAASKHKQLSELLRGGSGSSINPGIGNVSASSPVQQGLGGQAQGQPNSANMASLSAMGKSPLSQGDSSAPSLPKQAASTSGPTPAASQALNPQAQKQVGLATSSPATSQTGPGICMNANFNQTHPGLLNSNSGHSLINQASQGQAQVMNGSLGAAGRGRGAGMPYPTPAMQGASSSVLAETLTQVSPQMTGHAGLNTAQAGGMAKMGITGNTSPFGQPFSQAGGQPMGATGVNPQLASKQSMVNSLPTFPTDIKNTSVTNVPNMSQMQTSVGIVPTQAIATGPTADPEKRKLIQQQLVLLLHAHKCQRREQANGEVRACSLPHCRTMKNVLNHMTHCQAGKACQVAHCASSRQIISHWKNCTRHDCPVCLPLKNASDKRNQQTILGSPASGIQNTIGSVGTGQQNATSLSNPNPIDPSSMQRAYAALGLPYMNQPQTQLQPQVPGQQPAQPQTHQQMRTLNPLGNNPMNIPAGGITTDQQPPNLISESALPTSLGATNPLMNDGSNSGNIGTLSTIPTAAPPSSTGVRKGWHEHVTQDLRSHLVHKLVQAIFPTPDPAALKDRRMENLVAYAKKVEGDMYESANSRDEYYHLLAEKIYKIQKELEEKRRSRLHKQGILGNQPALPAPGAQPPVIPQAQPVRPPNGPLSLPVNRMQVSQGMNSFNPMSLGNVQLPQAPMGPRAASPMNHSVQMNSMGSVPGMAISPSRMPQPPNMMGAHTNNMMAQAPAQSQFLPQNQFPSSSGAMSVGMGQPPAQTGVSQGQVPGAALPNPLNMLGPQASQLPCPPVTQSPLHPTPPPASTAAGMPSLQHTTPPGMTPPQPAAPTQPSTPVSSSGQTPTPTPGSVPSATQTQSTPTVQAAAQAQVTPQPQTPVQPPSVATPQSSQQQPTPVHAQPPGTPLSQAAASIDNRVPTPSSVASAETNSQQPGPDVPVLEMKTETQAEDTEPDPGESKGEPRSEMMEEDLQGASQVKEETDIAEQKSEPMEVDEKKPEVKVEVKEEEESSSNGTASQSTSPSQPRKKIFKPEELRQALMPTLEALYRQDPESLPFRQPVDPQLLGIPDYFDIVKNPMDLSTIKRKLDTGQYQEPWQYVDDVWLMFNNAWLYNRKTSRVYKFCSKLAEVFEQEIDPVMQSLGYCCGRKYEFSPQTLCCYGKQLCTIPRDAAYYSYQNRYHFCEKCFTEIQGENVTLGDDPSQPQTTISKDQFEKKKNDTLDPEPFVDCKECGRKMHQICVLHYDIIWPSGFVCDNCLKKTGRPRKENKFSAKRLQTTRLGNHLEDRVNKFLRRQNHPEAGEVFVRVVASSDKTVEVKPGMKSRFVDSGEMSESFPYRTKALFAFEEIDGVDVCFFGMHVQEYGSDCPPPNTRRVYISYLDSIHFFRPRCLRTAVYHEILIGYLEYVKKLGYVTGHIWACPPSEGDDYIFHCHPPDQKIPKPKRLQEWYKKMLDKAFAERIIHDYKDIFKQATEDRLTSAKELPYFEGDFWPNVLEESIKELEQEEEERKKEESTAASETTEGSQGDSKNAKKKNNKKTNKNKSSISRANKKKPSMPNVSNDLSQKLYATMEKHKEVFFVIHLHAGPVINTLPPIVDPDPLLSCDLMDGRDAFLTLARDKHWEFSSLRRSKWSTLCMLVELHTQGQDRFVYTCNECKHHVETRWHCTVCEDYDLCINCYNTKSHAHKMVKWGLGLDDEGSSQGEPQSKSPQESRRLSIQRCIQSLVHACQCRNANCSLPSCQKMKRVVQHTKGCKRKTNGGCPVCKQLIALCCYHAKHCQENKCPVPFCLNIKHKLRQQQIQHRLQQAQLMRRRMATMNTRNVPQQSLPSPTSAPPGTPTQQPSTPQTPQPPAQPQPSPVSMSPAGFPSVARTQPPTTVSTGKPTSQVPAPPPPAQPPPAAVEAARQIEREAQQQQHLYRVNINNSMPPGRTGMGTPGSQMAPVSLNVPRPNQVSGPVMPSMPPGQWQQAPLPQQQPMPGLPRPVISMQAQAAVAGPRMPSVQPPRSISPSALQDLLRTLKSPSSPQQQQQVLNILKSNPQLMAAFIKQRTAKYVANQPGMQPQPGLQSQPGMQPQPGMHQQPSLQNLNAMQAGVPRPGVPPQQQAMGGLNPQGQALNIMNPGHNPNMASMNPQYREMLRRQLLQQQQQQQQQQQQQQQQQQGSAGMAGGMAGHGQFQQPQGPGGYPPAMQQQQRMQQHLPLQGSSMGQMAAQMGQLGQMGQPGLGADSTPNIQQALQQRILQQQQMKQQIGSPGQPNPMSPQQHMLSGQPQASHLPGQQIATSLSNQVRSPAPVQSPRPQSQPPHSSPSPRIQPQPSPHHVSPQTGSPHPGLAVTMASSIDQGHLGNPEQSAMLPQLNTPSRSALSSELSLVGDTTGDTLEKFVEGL
Test: Inhibition of CBP (unknown origin) using histone H3 (1 to 21 residues) as substrate preincubated for 15 mins followed by substrate and [3H]Ac-CoA addition and measured after 60 mins by liquid scintillation counting analysis
PROPERTY_LABEL: IC50 (nM)
Express the result in nM but write the number alone.

## Input Give its IC50 value. Item: CNC(=O)Nc1ccc2c(c1)CC[C@@]21OC(=O)N(CC(=O)N2Cc3cc(F)ccc3OC[C@H]2C2CC2)C1=O
## Output 11

* * *

The reader will find reported pIC50 values listed item by item below.
Tested on: MV4-11
Assay: Antiproliferative activity against human MV4-11 cells assessed as inhibition of cell growth incubated for 120 hrs by celltiter glo luminescence analysis
Type: functional, cell-based
Details: MV4-11, 120 h
API: returns pIC50 as number; meaning -log10 of concentration in mol/L.

A selection of reference data follows.
COMPOUND	MEASURED_TARGET	pIC50
CC(=O)c1cc(C(=O)Nc2cc(CO)cc(-c3cnn(C)c3)c2F)c2cc(OCCCCCC(=O)NCC#Cc3cccc4c3C(=O)N(C3CCC(=O)NC3=O)C4=O)ccn12 (stereo unspecified)	MV4-11	4.88
CC(=O)c1cc(C(=O)Nc2cc(CO)cc(-c3cnn(C)c3)c2F)c2cc(OCCCCCCC(=O)NCC#Cc3cccc4c3C(=O)N(C3CCC(=O)NC3=O)C4=O)ccn12 (stereo unspecified)	MV4-11	5.41
CC(=O)c1cc(C(=O)Nc2cc(CO)cc(-c3cnn(C)c3)c2F)c2cc(OC3CCN(C(=O)CCOCCOCCNc4cccc5c4C(=O)N(C4CCC(=O)NC4=O)C5=O)CC3)ccn12 (stereo unspecified)	MV4-11	4.95

## Input Give its pIC50 value. Item: CC(=O)c1cc(C(=O)Nc2cc(CO)cc(-c3cnn(C)c3)c2F)c2cc(OC3CCN(C(=O)CCOCCOCCOCCNc4cccc5c4C(=O)N(C4CCC(=O)NC4=O)C5=O)CC3)ccn12 (stereo unspecified)
## Output 5.27

## Input Give its pIC50 value. Item: CC(=O)c1cc(C(=O)Nc2cc(CO)cc(-c3cnn(C)c3)c2F)c2cc(OCCCC(=O)NCCCc3cccc4c3C(=O)N(C3CCC(=O)NC3=O)C4=O)ccn12 (stereo unspecified)
## Output 5.83

* * *

System: MV4-11
Experiment: Antiproliferative activity against human MV4-11 cells assessed as inhibition of cell growth incubated for 120 hrs by celltiter glo luminescence analysis
Format: functional, cell-based
Conditions: MV4-11, 120 h
The reader will find reported log10 IC50 values listed item by item below.
Reminder: these figures are log10 of reported IC50, in µM before transformation.

## Input Give its log10 IC50 value. Item: CC(=O)c1cc(C(=O)Nc2cc(CO)cc(-c3cnn(C)c3)c2F)c2cc(OCCCCC(=O)NCCCc3cccc4c3C(=O)N(C3CCC(=O)NC3=O)C4=O)ccn12 (configuration not stated)
## Output -0.12

## Input Give its log10 IC50 value. Item: CC(=O)c1cc(C(=O)Nc2cc(CO)cc(-c3cnn(C)c3)c2F)c2cc(OC3CCN(C(=O)CCOCCNc4cccc5c4C(=O)N(C4CCC(=O)NC4=O)C5=O)CC3)ccn12 (configuration not stated)
## Output 0.90

## Input Give its log10 IC50 value. Item: CC(=O)c1cc(C(=O)Nc2cc(CO)cc(-c3cnn(C)c3)c2F)c2cc(OCC(=O)NCCCCNc3cccc4c3C(=O)N(C3CCC(=O)NC3=O)C4=O)ccn12 (configuration not stated)
## Output -1.36

* * *

The reader will find reported IC50 at 72 h values listed item by item below.
Assay: Cytotoxicity against human HL7702 cells assessed as inhibition of cell growth incubated for 72 hrs by celltiter glo luminescence analysis
Assay type: toxicity, cell-based
Conditions: HL7702 (L02) cells

A selection of reference data follows.
COMPOUND	OBSERVED_MEASUREMENT
CC(=O)c1cc(C(=O)Nc2cc(CO)cc(-c3cnn(C)c3)c2F)c2cc(OCC(=O)NCCCCNc3cccc4c3C(=O)N(C3CCC(=O)NC3=O)C4=O)ccn12 (stereo not drawn)	> 100 µM
CC(=O)c1cc(C(=O)Nc2cc(CO)cc(-c3cnn(C)c3)c2F)c2cc(OCCCC(=O)NCCNc3cccc4c3C(=O)N(C3CCC(=O)NC3=O)C4=O)ccn12 (stereo not drawn)	> 100 µM

Moving on to another compound below.
## Input Give its IC50 at 72 h value. Item: CC(=O)c1cc(C(=O)Nc2cc(CO)cc(-c3cnn(C)c3)c2F)c2cc(OCCCCCC(=O)NCCCc3cccc4c3C(=O)N(C3CCC(=O)NC3=O)C4=O)ccn12 (stereo not drawn)
## Output > 100 µM

* * *

The reader will find reported log10 IC50 values listed item by item below.
Tested on: MV4-11
Test: Antiproliferative activity against human MV4-11 cells assessed as inhibition of cell growth incubated for 120 hrs by celltiter glo luminescence analysis
Assay type: functional, cell-based
Conditions: MV4-11, 120 h
Reminder: these figures are log10 of reported IC50, in µM before transformation.

MOLECULE	MEASURED_TARGET	log10 IC50
CC(=O)c1cc(C(=O)Nc2cc(CO)cc(-c3cnn(C)c3)c2F)c2cc(OCCCC(=O)NCC#Cc3cccc4c3C(=O)N(C3CCC(=O)NC3=O)C4=O)ccn12 (centres undefined)	MV4-11	1.37
CC(=O)c1cc(C(=O)Nc2cc(CO)cc(-c3cnn(C)c3)c2F)c2cc(OCCCCCCC(=O)NCCCc3cccc4c3C(=O)N(C3CCC(=O)NC3=O)C4=O)ccn12 (centres undefined)	MV4-11	0.01
CC(=O)c1cc(C(=O)Nc2cc(CO)cc(-c3cnn(C)c3)c2F)c2cc(OCCCCCCCC(=O)NCCCc3cccc4c3C(=O)N(C3CCC(=O)NC3=O)C4=O)ccn12 (centres undefined)	MV4-11	0.10
CC(=O)c1cc(C(=O)Nc2cc(CO)cc(-c3cnn(C)c3)c2F)c2cc(OCCCC(=O)NCCNc3ccc4c(c3)C(=O)N(C3CCC(=O)NC3=O)C4=O)ccn12 (centres undefined)	MV4-11	1.25
CC(=O)c1cc(C(=O)Nc2cc(CO)cc(-c3cnn(C)c3)c2F)c2cc(OCC(=O)NCCCc3cccc4c3C(=O)N(C3CCC(=O)NC3=O)C4=O)ccn12 (centres undefined)	MV4-11	0.88
CC(=O)c1cc(C(=O)Nc2cc(CO)cc(-c3cnn(C)c3)c2F)c2cc(OCC(=O)NCCCNc3cccc4c3C(=O)N(C3CCC(=O)NC3=O)C4=O)ccn12 (centres undefined)	MV4-11	0.03

Moving on to another molecule below.
## Input Give its log10 IC50 value. Item: CC(=O)c1cc(C(=O)Nc2cc(CO)cc(-c3cnn(C)c3)c2F)c2cc(O)ccn12
## Output 0.80
